# System: CCRF-CEM leukemia
# Assay Protocol: NCI tumour cell line growth inhibition, 48 h
Readout Label: GI50

Value of measured GI50 for the entry Nc1ncc(-c2ccc3ncnc(Nc4cccc(Cl)c4)c3c2)cn1 : 1.85 µM

The reported GI50 of the compound COC[C@H](NC(=O)c1cnc(C)s1)C(=O)N[C@@H](COC)C(=O)N[C@@H](Cc1ccccc1)C(=O)[C@@]1(C)CO1 was 21.3 µM

// Cc1ccc(CNc2ccc3nc(CCC4CCCCC4)[nH]c3c2)cc1 : GI50 value = 3.29 µM

The recorded GI50 for CCSC[C@@H]1C[C@](O)(c2ccc(Cl)cc2)[C@@H](c2ccc(Cl)cc2)O1 is 20.5 µM

So for NC(=S)N/N=C/c1ccc(OC(=O)COc2cc(Cl)c(Cl)cc2Cl)cn1 , the logged GI50 turned out to be 2.8 µM
